Target: rat adrenergic α1B receptor (Rattus norvegicus, UniProt P15823)
Construct: rat adrenergic α1B receptor obtained from Wistar Rat liver; from tissue; host or cells: Wistar rat liver
Sequence (P15823 1-515): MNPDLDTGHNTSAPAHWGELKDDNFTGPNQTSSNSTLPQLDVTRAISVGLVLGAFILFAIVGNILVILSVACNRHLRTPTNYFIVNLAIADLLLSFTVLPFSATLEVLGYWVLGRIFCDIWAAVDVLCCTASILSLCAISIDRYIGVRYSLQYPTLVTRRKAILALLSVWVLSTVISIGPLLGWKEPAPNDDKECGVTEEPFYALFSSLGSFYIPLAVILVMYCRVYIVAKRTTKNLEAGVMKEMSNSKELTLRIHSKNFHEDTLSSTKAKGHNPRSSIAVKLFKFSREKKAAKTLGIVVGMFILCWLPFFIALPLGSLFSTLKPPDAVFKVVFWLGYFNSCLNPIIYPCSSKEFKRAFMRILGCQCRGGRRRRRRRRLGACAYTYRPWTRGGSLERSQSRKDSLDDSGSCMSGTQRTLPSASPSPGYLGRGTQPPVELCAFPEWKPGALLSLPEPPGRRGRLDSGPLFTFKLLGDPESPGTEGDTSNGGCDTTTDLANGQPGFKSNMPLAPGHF
Protocol text: Radioligand binding, adrenergic α1B ([3H]Prazosin)
Parameters: species or system Wistar Rat
Measurement conditions: compound at 0.1 μM, repeat datapoints each shown, 0.1 µM
Observation type: Percentage inhibition of ligand binding, Adrenergic α1B (0.1 μM) (%)

compound="Cc1ccc2c(c1)c1c(n2CC(O)c2ccncc2)CC2CCCCN2C1 (racemic) [75c]" experimental_result=59
compound="OC(Cn1c2c(c3cccnc31)CN1CCCC1C2)c1ccncc1 (single isomer, unassigned) [37b]" experimental_result=−10

A: OC(Cn1c2c(c3cccnc31)CN1CCCC1C2)c1ccncc1 (single isomer, unassigned) [37a]
B: Cc1ccc2c(c1)c1c(n2CC(O)c2ccccn2)CN(C)CC1 (single isomer, unassigned) [22a]
// query In the pair A and B , the larger recorded Percentage inhibition of ligand binding, Adrenergic α1B (0.1 μM) belongs to which? # answer = label of selected item
// result B

A: Cc1ccc2c(c1)c1c(n2CC(O)c2ccncc2)CN(C)CC1 (stereo not shown)
B: Cc1ccc2c(c1)c1c(n2CC(OC(=O)C(N)C(C)C)c2ccncc2)CCN(C)C1 (single isomer, unassigned) [25b]
// query I would appreciate it if you could say which entry, A or B , has the lower Percentage inhibition of ligand binding, Adrenergic α1B (0.1 μM) value. # answer = label of selected item
// result B

A: CN1CCc2c(c3cc(Cl)ccc3n2CC(O)c2cccnc2)C1 (single isomer, unassigned) [7b]
B: Cc1ccc2c(c1)c1c(n2CC(O)c2ccncc2)C(C)N2CCC1C2 (single isomer, unassigned) [38b]
// query I would appreciate it if you could say which entry, A or B , has the lower Percentage inhibition of ligand binding, Adrenergic α1B (0.1 μM) value. # answer = label of selected item
// result B

###

Target: human recombinant adrenergic α2B receptor (Homo sapiens, UniProt P18089)
Construct: expressed in transfected cells; host or cells: CHO-K1
Sequence (P18089 whole entry): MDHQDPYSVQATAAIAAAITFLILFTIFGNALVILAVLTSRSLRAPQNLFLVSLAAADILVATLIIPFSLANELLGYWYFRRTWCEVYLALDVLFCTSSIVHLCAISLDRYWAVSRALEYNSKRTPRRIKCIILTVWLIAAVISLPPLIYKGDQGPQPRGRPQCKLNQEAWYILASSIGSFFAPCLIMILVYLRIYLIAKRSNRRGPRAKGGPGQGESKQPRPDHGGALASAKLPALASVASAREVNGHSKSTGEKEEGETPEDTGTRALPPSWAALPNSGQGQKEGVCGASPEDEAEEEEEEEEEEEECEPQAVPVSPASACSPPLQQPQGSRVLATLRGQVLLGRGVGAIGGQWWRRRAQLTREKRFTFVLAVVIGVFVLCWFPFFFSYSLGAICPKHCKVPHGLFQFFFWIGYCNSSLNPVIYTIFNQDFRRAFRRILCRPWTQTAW
Protocol text: Radioligand binding, adrenergic α2B ([3H]Rauwolscine)
Measurement conditions: compound at 0.1 μM, repeat datapoints each shown, 0.1 µM
Observation type: Percentage inhibition of ligand binding, Adrenergic α2B (0.1 μM) (%)

I: CN1CCc2c(c3cc(Cl)ccc3n2CC(O)c2ccncc2)C1 (single isomer, unassigned)
II: CCCCC(O)(Cn1c2c(c3cc(Cl)ccc31)CN(C)CC2)c1ccc(F)cc1 (single isomer, unassigned) [33b]
III: CCCCC(O)(Cn1c2c(c3cc(Cl)ccc31)CN(C)CC2)c1ccc(F)cc1 (single isomer, unassigned) [33a]
IV: CCC(O)(Cn1c2c(c3cc(C)ccc31)CN(C)CC2)c1ccc(F)cc1 (single isomer, unassigned) [34b]
// query Ranking field: Percentage inhibition of ligand binding, Adrenergic α2B (0.1 μM); order: falling. Note for the reader: the ranking is given by listing the labels in the order requested.
// result I, II, IV, III
